Attribution: PubChem BioAssay AID687022

- measured.target: Fibroblast growth factor 22 (Homo sapiens) (UniProt Q9HCT0)
- Sequence (Q9HCT0 whole entry, looked up): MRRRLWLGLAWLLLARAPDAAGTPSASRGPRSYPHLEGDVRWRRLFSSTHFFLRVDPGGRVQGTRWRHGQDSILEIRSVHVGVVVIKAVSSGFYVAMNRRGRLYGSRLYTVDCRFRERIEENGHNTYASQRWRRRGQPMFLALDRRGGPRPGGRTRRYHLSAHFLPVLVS
- assay.info: FGF22 ligand-induced thermal stabilization – biophysical, thermal shift, cherry-pick, FGF22 synaptogenesis inhibitor project, dose response (AID 687022)
- assay.setup: recombinant FGF22 thermal shift, SYPRO orange melting
Activity calls are given as the source filed them.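 Rule for the calls: active = Fitted curve of melting temperature shift crosses the 1.0 threshold at or below the sample's highest valid tested concentration; inconclusive = Flat fit with activity 30 to 70, or invalid fit; inactive = Opposite direction, flat within 30, or no crossing.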
Bench note: report the call from label 1 = active, label 0 = inactive

Look over these answered cases.
1. Cc1ccc(NC(=O)Nc2cccnc2)cc1 ... label 1
2. CC(C)(C)c1ccc(C2CC2C(=O)N/N=C\c2ccc[nH]2)cc1 (stereo not given) ... label 1
3. Cc1[nH]c2ccc(C(=O)OCC(=O)Nc3cccc(S(N)(=O)=O)c3)cc2c1C ... label 1
4. C[C@@H]1CN([C@@H](C)CO)S(=O)(=O)c2ccc(-c3cccc(C#N)c3)cc2O[C@@H]1CN(C)C(=O)Nc1cc(F)ccc1F ... label 0

Call for entry O=c1ccc2nc3ccccc3sc-2c1 : label 1

Would you mind telling me which call this test gave O=C(CNC(=O)c1ccc(S(=O)(=O)N2CCCC2)cc1)N/N=C/c1ccc(F)cc1 ? label 1

What is the recorded call for this compound in the test? O=C(Nc1ccc(S(=O)(=O)N2CCCC2)cc1)c1cccs1 label 1

Which outcome was entered for the compound CC(C)c1c(C(=O)N/N=C/c2c[nH]c3ccccc23)nnn1-c1nonc1N in this test? label 1

Could you please tell me the result logged for Cc1noc(C)c1NC(=O)N[C@@H]1C=C[C@H](CC(=O)Nc2ccc(-c3ccccc3)cc2)O[C@@H]1CO in this assay? label 1

How was O=C(Nc1ccc(S(=O)(=O)N2CCCC2)cc1)c1ccccc1 classified in this test? label 1

# outcome recorded in this test, key = O=S1(=O)N=C(N(Cc2cccs2)c2ccc(O)cc2)c2ccccc21 label 1

In this assay, the call recorded for C[C@@H]1CN([C@@H](C)CO)C(=O)Cc2cc(NC(=O)C3CC3)ccc2O[C@H]1CN(C)Cc1ccc(Cl)c(Cl)c1 was what? label 1

----------
- measured.target: Fibroblast growth factor 22 (Homo sapiens)
- assay.info: FGF22 ligand-induced thermal stabilization – biophysical, thermal shift, cherry-pick, FGF22 synaptogenesis inhibitor project, dose response (AID 687022);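 active = Fitted curve of melting temperature shift crosses the 1.0 threshold at or below the sample's highest valid tested concentration; inconclusive = Flat fit with activity 30 to 70, or invalid fit; inactive = Opposite direction, flat within 30, or no crossing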
- assay.setup: recombinant FGF22 thermal shift, SYPRO orange melting
Answer with one of the outcomes given here: TRUE = active, FALSE = inactive

Per the records of this test, what outcome belongs to COc1cc(NC(=O)c2cnc(N)o2)cc(C(=O)Nc2cccc(C(F)(F)F)c2)c1 ? TRUE

Tell me the assay call for O=C(O)c1cccc(NS(=O)(=O)c2ccc(Cl)c(C(=O)Nc3cccc([N+](=O)[O-])c3)c2)c1 please. TRUE

GET /call?item= C[C@@H]1CN([C@H](C)CO)S(=O)(=O)c2ccc(-c3ccc(F)cc3)cc2O[C@@H]1CN(C)C(=O)Nc1ccccc1F returns the recorded outcome of this test. TRUE

Hi, do you know how C[C@H]1CN([C@@H](C)CO)S(=O)(=O)c2ccc(C3=CCCC3)cc2O[C@H]1CN(C)C(=O)Nc1ccc2c(c1)OCO2 came out in this test? TRUE

Entry COc1ccc(/C(O)=C/C(=O)C(=O)NNC(=O)c2ccccc2)cc1 : call = ? TRUE

State the result this test recorded for Oc1ccc(-c2nnc(Nc3cccc(O)c3)c3ccccc23)cc1 . TRUE

Tell me the recorded outcome of this test for CCc1nnc(NS(=O)(=O)c2ccc(NC(=S)NC(=O)/C=C/c3ccc([N+](=O)[O-])cc3)cc2)s1 . TRUE

----------
- measured.target: Fibroblast growth factor 22 (Homo sapiens) (UniProt Q9HCT0)
- assay.info: FGF22 ligand-induced thermal stabilization – biophysical, thermal shift, cherry-pick, FGF22 synaptogenesis inhibitor project, dose response (AID 687022)
- assay.setup: recombinant FGF22 thermal shift, SYPRO orange melting
Active and inactive are the calls of the source.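 How the source made its calls: active means Fitted curve of melting temperature shift crosses the 1.0 threshold at or below the sample's highest valid tested concentration; inconclusive means Flat fit with activity 30 to 70, or invalid fit; inactive means Opposite direction, flat within 30, or no crossing.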
Returns: one label drawn from Yes for active, No for inactive

Please review the entries below; each comes with its answer.
1) O=C(N/N=C/c1c[nH]c2ccccc12)c1cccc(O)c1 ... Yes
2) O=C(O)c1ccccc1NS(=O)(=O)c1ccc2ccccc2c1 ... Yes
3) S=c1[nH]c2cc3ccccc3cc2[nH]1 ... Yes

State the result this test recorded for CNC(=S)N(Cc1ccc(OC)cc1)C1CC(=O)N(c2ccc(C(=O)OC)cc2)C1=O (stereo unspecified) . Yes

Hi, do you know how O=C(N/N=C/c1ccc(Cl)cc1)c1ccc2nc[nH]c2c1 came out in this test? Yes

Each compound tested received a call. Report the one for CCCNC(=O)COC(=O)c1ccccc1C(=O)N(C)C1CCCCC1 . Yes

So what was the verdict on COc1ccc2nc(NC(=O)CCc3cc(OC)c(OC)c(OC)c3)sc2c1 in this test? Yes

Fill in: this test's call for Cc1[nH]c2ccccc2c1C(=O)NS(=O)(=O)Nc1ccc(Cl)cc1 is ___ Yes

Check the results log: what was the call for COc1ccccc1NC(=O)N[C@H]1CC[C@H](CCn2cc(-c3ccccc3OC)nn2)O[C@H]1CO ? Yes

For CSCCC(NS(=O)(=O)c1ccc(Cl)c(Cl)c1)C(=O)O (stereo unspecified) , what call appears in the results of this test? No

Which outcome did this test record for the compound Cn1cc([N+](=O)[O-])c(C(=O)Nc2ccc3nc(-c4ccccc4)[nH]c3c2)n1 ? Yes

Assay result, entry O=C(N/N=C/c1c[nH]c2ccccc12)c1cc2ccccc2o1 — outcome? Yes

Record lookup: outcome of this test for C/C=C/c1ccc2c(c1)O[C@H](CN(C)C(=O)Nc1cc(F)ccc1F)[C@H](C)CN([C@H](C)CO)S2(=O)=O ? No

Assay result, entry O=C(N/N=C/c1ccc(Cl)c(Cl)c1)c1ccc2nc[nH]c2c1 — outcome? Yes

What did the test return for COc1ccc(-c2nc(-c3ccc(O)cc3O)cs2)cc1OC ? Yes

Which outcome was entered for the compound O=C(COc1ccc([N+](=O)[O-])cc1)Nc1cccc(C(=O)Nc2ccccc2C(=O)O)c1 in this test? Yes

Per the records of this test, what outcome belongs to COc1cccc(NC(=O)N(C)C[C@H]2Oc3cc(-c4ccccc4F)ccc3S(=O)(=O)N([C@H](C)CO)C[C@H]2C)c1 ? Yes

Lab log entry: Cc1nc2ccc(NC(=O)c3ccc(C)c(S(=O)(=O)N4CCOCC4)c3)cc2s1 — outcome as called in the assay? Yes

Which result was noted for this compound in the test: CCN(CC)S(=O)(=O)c1ccc(N/N=C(\C)c2ccc(OC)cc2O)nc1 Yes

State the result this test recorded for Cc1ccc(NC(=O)CN2C(=O)NC(Cc3c[nH]c4ccccc34)C2=O)cc1 (stereo unspecified) . Yes

Field: outcome | Entry: O=[N+]([O-])c1ccc(N/N=C/c2ccc[nH]2)cc1 Yes

----------
- measured.target: Fibroblast growth factor 22 (Homo sapiens)
- assay.info: FGF22 ligand-induced thermal stabilization – biophysical, thermal shift, cherry-pick, FGF22 synaptogenesis inhibitor project, dose response (AID 687022);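 active means Fitted curve of melting temperature shift crosses the 1.0 threshold at or below the sample's highest valid tested concentration; inconclusive means Flat fit with activity 30 to 70, or invalid fit; inactive means Opposite direction, flat within 30, or no crossing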
- assay.setup: recombinant FGF22 thermal shift, SYPRO orange melting
Mark one answer only. Choices: class 1 for active, class 0 for inactive

Example entries begin here.
1. CCOc1ccc(N2C(=O)C(CC(=O)Nc3ccc(F)cc3)N(Cc3ccccn3)C2=S)cc1 (stereo not given) ... class 1
2. O=C(N/N=C/c1c[nH]c2ccc(Br)cc12)c1ccc2c(c1)OCO2 ... class 1
3. CC1([N+](=O)[O-])COP(=O)(NC2CC2)OC1 (stereo not given) ... class 1
4. C[C@H](CO)N1C[C@H](C)[C@H](CN(C)C(=O)Nc2ccc(C(F)(F)F)cc2)Oc2cc(-c3ccncc3)ccc2S1(=O)=O ... class 1
5. CCN1C(=O)C(CC(=O)Nc2ccc(OC)cc2)N(Cc2ccc3c(c2)OCO3)C1=S (stereo not given) ... class 1

Continue with the next molecule.
Short answer needed: outcome of this test for C[C@@H]1CN([C@@H](C)CO)S(=O)(=O)c2ccc(C3=CCCC3)cc2O[C@@H]1CN(C)C(=O)Nc1ccc2c(c1)OCO2 ? class 1

----------
# AbsAC1 (concentration giving Tm-shift threshold 1.0) values compiled below
- measured.target: Fibroblast growth factor 22 (Homo sapiens)
- assay.info: FGF22 ligand-induced thermal stabilization – biophysical, thermal shift, cherry-pick, FGF22 synaptogenesis inhibitor project, dose response (AID 687022)
- assay.setup: recombinant FGF22 thermal shift, SYPRO orange melting

1. O=C(O)Cn1cc(/C=N/NC(=O)c2cc3cc(Br)ccc3o2)c2ccccc21 ... 6.74 µM
2. COc1cccc(C(=O)Nc2cccc(NC(=O)c3cccs3)c2)c1 ... 1.72 µM
3. CC(C)c1ccc(-n2c(O)c(/C=N/NC(=O)c3ccccc3O)c(=O)[nH]c2=S)cc1 ... 3.91 µM
4. O=C(N/N=C/c1ccc(O)cc1)c1cccc(N/N=C/c2ccc(O)cc2)c1 ... 5.77 µM
5. N/C(=N\OCC(=O)Nc1ccc(F)c(Cl)c1)c1ccccc1 ... 4.58 µM

// switching to the query compound
Lab note: need AbsAC1 (concentration giving Tm-shift threshold 1.0) with Fibroblast growth factor 22 (Homo sapiens) for entry CSc1ccc(/C=N/NC(=O)c2ccc3nc[nH]c3c2)cc1 , please look it up. 1.58 µM
